Reference source for all entries: patent US10495796B2

- experimentalDetails: Absorption characteristics: transmission spectrum of near-infrared absorbing layer of NIR filter (UV-visible spectrophotometer)
- Type: physicochemical
- conditionParameters: transparent resin acrylic resin BR50, nd(B) 1.56, film thickness 2.3 μm
metric: λa (nm)

{"molecule": "CCCCC(CC)C(=O)Nc1cc2c(cc1C1=C([O-])C(=c3cc4c(cc3NC(=O)C(CC)CCCC)=[N+](C)C(C)C4(C)C)C1=O)C(C)(C)C(C)N2C (centres unmarked)", "unitTag": "nm", "λa": 689}
{"molecule": "CC(=O)Nc1cc2c(cc1C1=C([O-])C(=c3cc4c(cc3NC(C)=O)=[N+](C)C(C)C4(C)C)C1=O)C(C)(C)C(C)N2C (centres unmarked) [Example A11-20, reference compound]", "unitTag": "nm", "λa": 687}
{"molecule": "CC(CCC(C(=O)Nc1cc2c(cc1C1=C([O-])C(=c3cc4c(cc3NC(=O)C(CCC(C)CC(C)(C)C)C(C)CC(C)(C)C)=[N+](C)C(C)C4(C)C)C1=O)C(C)(C)C(C)N2C)C(C)CC(C)(C)C)CC(C)(C)C (centres unmarked)", "unitTag": "nm", "λa": 688}
{"molecule": "Cc1ccc(C)c(OCCCC(C)(C)C(=O)Nc2cc3c(cc2C2=C([O-])C(=c4cc5c(cc4NC(=O)C(C)(C)CCCOc4cc(C)ccc4C)=[N+](C)C(C)C5(C)C)C2=O)C(C)(C)C(C)N3C)c1 (centres unmarked)", "unitTag": "nm", "λa": 683}
{"molecule": "CCCC(CCC)C(=O)Nc1cc2c(cc1C1=C([O-])C(=c3cc4c(cc3NC(=O)C(CCC)CCC)=[N+](C)C(C)C4(C)C)C1=O)C(C)(C)C(C)N2C (centres unmarked)", "unitTag": "nm", "λa": 689}
